Test system: COLO 205
measurementNotes: NCI tumour cell line growth inhibition, 48 h
Active and inactive are the calls of the source. Rule as the data show it: active = GI50 up to about 1.1 µM and inactive = higher.

- compound: "C=C1C2Oc3ccccc3C1N(c1ccccc1)O2 (stereo not given)"
  assayTarget: "COLO 205"
  GI50: "48.5 µM (inactive)"
- compound: "Cc1cc(NC(=O)C(=O)Cc2cnc3ccccc3n2)c(S(=O)(=O)O)cc1Cl"
  assayTarget: "COLO 205"
  GI50: "> 100 µM (inactive)"
- compound: "CCOC(=O)/C(C(=O)c1ccc[nH]1)=C1/CCCN1C"
  assayTarget: "COLO 205"
  GI50: "> 100 µM (inactive)"
- compound: "Nc1nc2c(ncn2Cc2ccccc2CO)c(=O)[nH]1"
  assayTarget: "COLO 205"
  GI50: "> 100 µM (inactive)"
- compound: "O=C(/C=C/c1cccc(Oc2ccccc2)c1)NCc1ccc(C(=O)NCCc2ccccc2)cc1"
  assayTarget: "COLO 205"
  GI50: "> 100 µM (inactive)"
- compound: "CC1CCN(CC(=O)N2c3ccccc3Sc3cc4ccccc4cc32)CC1"
  assayTarget: "COLO 205"
  GI50: "> 100 µM (inactive)"
- compound: "CN1C(=O)C(=O)c2cc3c(c4c2c1cc1ccccc14)OCO3"
  assayTarget: "COLO 205"
  GI50: "28.7 µM (inactive)"
- compound: "CCCCC(=O)Nc1ccc2cc(C(=O)OC)c(=O)[nH]c2n1"
  assayTarget: "COLO 205"
  GI50: "> 100 µM (inactive)"
- compound: "O=C(c1cccs1)N1CCN(C(=O)c2cccs2)C1=S"
  assayTarget: "COLO 205"
  GI50: "7.35 µM (inactive)"
- compound: "CCOC(=O)C1=CC(C)(C(=O)OCC)Nc2c(nc(SC)n(C)c2=O)N1 (stereo not given)"
  assayTarget: "COLO 205"
  GI50: "> 10 µM (inactive)"

----------
// endpoint GI50 / system HCT-15

- compound: "CC1(C)CCN2C(=O)C34CCCC3CC21S4 (configuration not stated)"
  unitString: "µM"
  resultOperator: ">"
  GI50: 100
- compound: "CCCCC(=O)Nc1ccc2cc(C(=O)OC)c(=O)[nH]c2n1"
  unitString: "µM"
  resultOperator: ">"
  GI50: 100
- compound: "Nc1ccn(C2OC(CO)C(O)C2O)c(=O)n1 (configuration not stated)"
  unitString: "µM"
  resultOperator: "="
  GI50: 73.5
- compound: "CCOC(=O)[C@@]1(C(C)=O)CC(C)=C(C)C[S@@+]1[O-]"
  unitString: "µM"
  resultOperator: ">"
  GI50: 100
- compound: "Nc1ncn2c(n1)nc1ccccc12"
  unitString: "µM"
  resultOperator: ">"
  GI50: 100
- compound: "CC1=CCC2CC1NC(=O)CCOCCC(=O)NC2(C)C (configuration not stated)"
  unitString: "µM"
  resultOperator: ">"
  GI50: 100
- compound: "O=C(NCCCCNCCCNC(=O)c1ccccc1)c1ccccc1"
  unitString: "µM"
  resultOperator: ">"
  GI50: 100
- compound: "CC(C)c1cccc(=O)c(O)c1"
  unitString: "µM"
  resultOperator: "="
  GI50: 5.14
- compound: "CC1(C)C(c2ccccc2)=NN(O)c2ccccc21"
  unitString: "µM"
  resultOperator: ">"
  GI50: 100
- compound: "O=C(/C=C/c1cccc(Oc2ccccc2)c1)NCc1ccc(C(=O)NCCc2ccccc2)cc1"
  unitString: "µM"
  resultOperator: ">"
  GI50: 100
- compound: "CN(C)/N=N/c1nc2c(c(=O)n(C)c(=O)n2C)n1CC(O)CO (configuration not stated)"
  unitString: "µM"
  resultOperator: ">"
  GI50: 100
- compound: "N#Cc1c(Cl)nc2ccccc2c1N=[N+]=[N-]"
  unitString: "µM"
  resultOperator: "="
  GI50: 2.02
- compound: "O=C(O)c1[nH]c(=O)[nH]c(=O)c1CN1CCCCC1"
  unitString: "µM"
  resultOperator: ">"
  GI50: 100
- compound: "C=C1CCC([N+](=O)[O-])[C@](C)(N=O)CC[C@@H]2C1CC2(C)C (some centres not stated)"
  unitString: "µM"
  resultOperator: "="
  GI50: 22.8
- compound: "Cc1cccc(NC2=NC(=O)C(CC(=O)Nc3ccc(Cl)cc3C)S2)c1 (configuration not stated)"
  unitString: "µM"
  resultOperator: ">"
  GI50: 100
- compound: "Cc1[nH]c2c(C)ccc(C)c2c1CC(=O)O"
  unitString: "µM"
  resultOperator: "="
  GI50: 53.5
- compound: "FC(F)(F)c1nc2nc(Cl)c(Cl)nc2n1CCCN1CCOCC1"
  unitString: "µM"
  resultOperator: "="
  GI50: 29
- compound: "CCCCCC1=C/C(=C\\c2[nH]c(-c3ccc[nH]3)cc2OC)N=C1C"
  unitString: "µM"
  resultOperator: "<"
  GI50: 0.01
- compound: "O=C1CSC2(CC(/C=C/c3cccs3)=NN2c2cccc(S(=O)(=O)O)c2)N1c1nc2ccccc2s1 (configuration not stated)"
  unitString: "µM"
  resultOperator: ">"
  GI50: 100
- compound: "CNC(=S)N/N=C/c1ccc([N+](=O)[O-])s1"
  unitString: "µM"
  resultOperator: ">"
  GI50: 10
- compound: "O=C1CCCCCCCCCCC1CN1CCOCC1 (configuration not stated)"
  unitString: "µM"
  resultOperator: ">"
  GI50: 100
- compound: "C=C[C@@]1(O)CCCC2=C(C(=O)OCC)CC[C@]21C"
  unitString: "µM"
  resultOperator: ">"
  GI50: 100
- compound: "COc1ccc(NC(=S)N/N=C2\\C(=O)Nc3ccccc32)cc1"
  unitString: "µM"
  resultOperator: "="
  GI50: 0.984
- compound: "Clc1ccc(COC(Cn2ccnc2)c2ccc(Cl)cc2Cl)c(Cl)c1 (configuration not stated)"
  unitString: "µM"
  resultOperator: "="
  GI50: 10.8
- compound: "C=C1[C@H](OCC(C)C)[C@@H](OC(=O)C(C)CC)[C@@H](O)C(C)(C)/C=C/[C@H](C)C(=O)[C@@]2(O)C[C@H](C)[C@H](O)[C@@H]2[C@H]1OC(=O)C(C)CC (some centres not stated)"
  unitString: "µM"
  resultOperator: "="
  GI50: 7.82
- compound: "Cc1cc2c(cc1O)CC[C@@H]1[C@@H]2CC[C@]2(C)[C@@H](O)CC[C@@H]12"
  unitString: "µM"
  resultOperator: "="
  GI50: 4.08
- compound: "N#CC(c1ccccc1)(c1ccccc1)[C@@H](c1ccccc1)[C@H](Cc1ccccc1)NS(=O)(=O)c1ccccc1"
  unitString: "µM"
  resultOperator: ">"
  GI50: 100
- compound: "CCOC(=O)C(=Cc1ccccc1Br)C(=O)OCC"
  unitString: "µM"
  resultOperator: "="
  GI50: 1.67
- compound: "COC(=O)C(C(=O)OC)C1CCCC(=O)C1 (configuration not stated)"
  unitString: "µM"
  resultOperator: ">"
  GI50: 100
- compound: "Nc1ccc(Nc2cc(=O)[nH]c(=O)[nH]2)cc1Cl"
  unitString: "µM"
  resultOperator: ">"
  GI50: 100
- compound: "CCOC(=O)c1ccc(NC(=O)SCCC(=O)O)cc1"
  unitString: "µM"
  resultOperator: ">"
  GI50: 100
- compound: "CC(C)(C)C1=C(Br)C(C(C)(C)C)OP1(=O)O (configuration not stated)"
  unitString: "µM"
  resultOperator: ">"
  GI50: 100
- compound: "COc1ccc(-c2cc(-c3ccc(O)cc3O)c(C#N)c(=O)[nH]2)cc1"
  unitString: "µM"
  resultOperator: "="
  GI50: 31.9
- compound: "Cn1c2ccccc2c(=NNc2ccc(S(N)(=O)=O)cc2)c2ccccc21"
  unitString: "µM"
  resultOperator: "="
  GI50: 16.2
- compound: "C=CC1(NS(=O)(=O)c2ccc(C)cc2)CCC(C(C)(C)C)CC1 (configuration not stated)"
  unitString: "µM"
  resultOperator: ">"
  GI50: 100
- compound: "CC1=C(C(=O)NCc2ccccc2)C(c2ccc(C3C(C(=O)NCc4ccccc4)=C(C)NC(C)=C3C(=O)NCc3ccccc3)cc2)C(C(=O)NCc2ccccc2)=C(C)N1"
  unitString: "µM"
  resultOperator: "="
  GI50: 16.1
- compound: "O=[N+]([O-])c1cc2c([N+](=O)[O-])cccc2o1"
  unitString: "µM"
  resultOperator: "="
  GI50: 4.59

----------
Documented GI50 across a set of molecules
Test system: MDA-N
measurementNotes: NCI tumour cell line growth inhibition, 48 h
Calls of active or inactive are those of the source. No stated cut-off is given here; in the data, active = GI50 up to about 1.1 µM and inactive = higher.

- molecule: "CCN(CC)CC1CCCCN1CC(=O)N1c2ccccc2C(=O)Nc2cccnc21 (configuration not stated)"
  GI50: "66.2 µM (inactive)"
- molecule: "Cc1cn(CC2=NCCCN2)c(=O)[nH]c1=O"
  GI50: "> 100 µM (inactive)"
- molecule: "CCN(CC)CCNc1ccc2nnn3c4ccc(OC(C)=O)cc4c(=O)c1c23"
  GI50: "4.61 µM (inactive)"
- molecule: "CNC(=S)N/N=C/c1ccc([N+](=O)[O-])s1"
  GI50: "> 10 µM (inactive)"
- molecule: "COc1ccc(-c2cc(-c3ccc(O)cc3O)c(C#N)c(=O)[nH]2)cc1"
  GI50: "11.6 µM (inactive)"
- molecule: "NS(=O)(=O)c1ccc(NC(=O)Nc2cccc3ccccc23)cc1"
  GI50: "54.8 µM (inactive)"
- molecule: "CC(C)(C)OC(=O)NCC(=O)NC1CC=CCC1NC(=O)CNC(=O)OC(C)(C)C (configuration not stated)"
  GI50: "> 100 µM (inactive)"
